Catalogue of OD readings, one per entry.
system: P388; test: Optimal dose administered intraperitoneally after intraperitoneal inoculation of 10 e 6 P388 leukemia cells; assay type: functional, Mus musculus
Numeric only. Scale: mg/kg

> print(dat)
                         compound.smiles  measured.target  endpoint.unit  obs.value
1   Cc1c2ccccc2nc2c(C(=O)NCCN(C)C)cccc12             P388          mg/kg         45
2  CN(C)CCNC(=O)c1cccc2c(=O)c3ccccc3sc12             P388          mg/kg        225
3  CN(C)CCNC(=O)c1cccc2c(=O)c3ccccc3oc12             P388          mg/kg        150

Lookup: Please tell me: OD of CN(C)CCNC(=O)c1cccc2c1Sc1ccccc1O2 , system P388?
Found: 100

Lookup: Which measured OD belongs to CN(C)CCNC(=O)c1cccc2c1Oc1ccccc1O2 , tested on P388?
Found: 150
